test system: Plasma; assay: Drug level in Sprague-Dawley rat plasma at 10 mg/kg, po administered as single dose measured at 24 hrs post dose by LC-MS/MS analysis; format: ADME, organism-based; conditions: in vivo
measuredQuantity: Drug uptake

For this compound ( O/N=c1\cc(-c2cc3cccn3cn2)oc2ccc(OCCN3CCOCC3)cc12 ), measured Drug uptake is 2 to 10%

----------
test: Drug uptake in Sprague-Dawley rat brain at 30 mg/kg, ip after 30 mins post dose administered as single dose by LC-MS/MS analysis; assay type: ADME, organism-based; details: read-out: Drug uptake
measuredQuantity: concentration at 0.5 h (ng/g)
Answers are plain numbers, in ng/g.

For this compound ( O/N=c1\cc(-c2cc3cccn3cn2)oc2ccc(OCCN3CCOCC3)cc12 ), measured concentration at 0.5 h is 22800

----------
assay: Drug uptake in Sprague-Dawley rat brain at 30 mg/kg, ip after 60 mins; assay type: ADME, organism-based; conditions: read-out: Drug uptake
measuredQuantity: concentration at 1 h (ng/g)
One number for each entry, in ng/g.

For this compound ( O/N=c1\cc(-c2cc3cccn3cn2)oc2ccc(OCCN3CCOCC3)cc12 ), measured concentration at 1 h is 12000

----------
experiment: Ratio of drug level in C57BL/6 mouse brain to plasma at 10 mg/kg, po after 30 mins post dose administered as single dose by LC-MS/MS analysis; type: ADME, organism-based; settings: read-out: BPR
measuredQuantity: Kp at 0.5 h
Give bare numbers.

For this molecule ( O/N=c1\cc(-c2cc3cccn3cn2)oc2ccc(OCCN3CCOCC3)cc12 ), measured Kp at 0.5 h is 1.7

----------
assay: Half life in Sprague-Dawley rat plasma at 30 mg/kg, ip administered as single dose by LC-MS/MS analysis; type: ADME, organism-based
measuredQuantity: half-life (min)
Numbers only, in min.

For this compound ( O/N=c1\cc(-c2cc3cccn3cn2)oc2ccc(OCCN3CCOCC3)cc12 ), measured half-life is 270

----------
assay: Tmax in Sprague-Dawley rat plasma at 30 mg/kg, ip administered as single dose by LC-MS/MS analysis; format: ADME, organism-based
measuredQuantity: Tmax (min)
One number for each entry, in min.

For this compound ( O/N=c1\cc(-c2cc3cccn3cn2)oc2ccc(OCCN3CCOCC3)cc12 ), measured Tmax is 15

----------
assay: Drug uptake in Sprague-Dawley rat brain at 10 mg/kg, po after 30 mins post dose administered as single dose by LC-MS/MS analysis; assay type: ADME, organism-based; settings: read-out: Drug uptake
measuredQuantity: concentration at 0.5 h (ng/g)
Give bare numbers, in ng/g.

Known concentration at 0.5 h results, listed for orientation:
Cc1cc(CCCOc2ccc3oc(-c4cc5cccn5cn4)c/c(=N\O)c3c2)ccn1    77.3
CC(=O)N1CCC(COc2ccc3oc(-c4cc5sccc5cn4)c/c(=N\O)c3c2)CC1    10.7
CN(C)C(=O)N1CC(Oc2ccc3oc(-c4cc5cccn5cn4)c/c(=N\O)c3c2)C1    25.5
O/N=c1\cc(-c2cc3sccc3cn2)oc2ccc(O[C@@H]3CCN(c4ccncn4)C3)cc12    20
Cc1ncccc1N1CCC(Cc2ccc3oc(-c4cc5sccc5cn4)c/c(=N\O)c3c2)CC1    7.4

Please supply concentration at 0.5 h for each of the following items, keeping them in order.
1. O/N=c1\cc(-c2cc3sccc3cn2)oc2ccc(CCCN3CCC(F)(F)C3)cc12
2. CN(C)C1CCN(CCOc2ccc3oc(-c4cc5cccn5cn4)c/c(=N\O)c3c2)CC1
3. O/N=c1\cc(-c2cc3sccc3cn2)oc2ccc(OC3CN(c4cccnc4)C3)cc12
4. O/N=c1\cc(-c2cc3sccc3cn2)oc2ccc(CCCN3CCC(F)(F)CC3)cc12

275
2.8
33.4
157

Please supply concentration at 0.5 h for each of the following items, keeping them in order.
1. CC(=O)N1CCC(Oc2ccc3oc(-c4cc5cccn5cn4)c/c(=N\O)c3c2)CC1
2. O/N=c1\cc(-c2cc3cccn3cn2)oc2ccc(OCCCc3cccnc3)cc12
3. O/N=c1\cc(-c2cc3sccc3cn2)oc2ccc(CCCN3CCOCC3)cc12

24.1
3.4
458
